These measurements were taken from PubChem BioAssay (EPA / NIEHS).

# assay.details: ATG_Ets_CIS: Attagene CIS-FACTORIAL HepG2 Assay for human Erythroblast Transformation Specific (ETS) (AID 2282941)
# assay.context: HepG2 ETS cis-reporter transcription, actives raise or lower the signal
Active and inactive are the calls of the source. Rule for the calls: active = hit-call score of the fitted dose curve at least 0.9, where 1 is the maximum; inactive = score below 0.9.
recorded.metric: AC50

Please review the entries below; each comes with its answer.
compound | result
CCOC(=S)SSC(=S)OCC | inactive
O=C(Cl)c1cccc(C(=O)Cl)c1 | inactive
COc1cc(C(C)(C)C)c(O)c(C(C)(C)C)c1 | inactive
CC(C)OP(=O)(CP(=O)(OC(C)C)OC(C)C)OC(C)C | inactive
NCCCCCCN | inactive
O=C(O)CCCCCCCCCCC(=O)O | inactive
CCCCCCCCCCCCOCCO | inactive
CC(=O)c1c(C)cc(C(C)(C)C)cc1C | inactive
O=P(c1ccccc1)(c1ccccc1)c1ccccc1 | inactive
ClCCCl | inactive

Query :: If you can, please state the reported AC50 value of COc1nc(C)nc(N)n1 .
Result :: inactive

Query :: If you can, please state the reported AC50 value of c1ccc2sc(SN(C3CCCCC3)C3CCCCC3)nc2c1 .
Result :: inactive

====

# assay.details: ATG_NRF2_ARE_CIS: Attagene CIS-FACTORIAL HepG2 Assay for human Nuclear Factor Erythroid 2 Related Factor 2 (NFR2) response to Antioxidant Response Elements (ARE) (AID 2282992);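 for AC50: reporter mRNA level measured by RT-PCR and capillary electrophoresis fluorescence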
# assay.context: HepG2 Attagene ARE/NRF2 reporter, transcription factor activity; actives raise or lower the signal
Calls of active or inactive are those of the source. Rule for the calls: active = hit-call score of the fitted dose curve at least 0.9, where 1 is the maximum; inactive = score below 0.9.
recorded.metric: AC50

Please review the entries below; each comes with its answer.
compound | AC50
Nc1cc([N+](=O)[O-])ccc1O | 38.1 µM (active)
C=C[Si](OCC)(OCC)OCC | inactive
CC1(C)C(=O)N(Br)C(=O)N1Cl | 100 µM (active)
CCCCCCCCCCCCCC(=O)O | 65.5 µM (active)
CCCCC(CC)COC(=O)/C=C\C(=O)OCC(CC)CCCC (configuration not stated) | 9.08 µM (active)

Query :: If you can, please state the reported AC50 value of COC(=O)c1ccc(C)cc1 .
Result :: inactive

Query :: If you can, please state the reported AC50 value of OCCOCCOCCOCCO .
Result :: inactive

Query :: If you can, please state the reported AC50 value of CC1(C)[C@H](C(=O)OCc2cccc(Oc3ccccc3)c2)[C@@H]1C=C(Cl)Cl .
Result :: inactive

Query :: If you can, please state the reported AC50 value of CN(C)CCOCCN(C)C .
Result :: inactive

Query :: If you can, please state the reported AC50 value of CN(C)CCCN .
Result :: inactive

====

# Read-out: Vascular cell adhesion molecule 1 (VCAM1), VCAM1 (gene 7412)
# assay.details: BSK_4H_VCAM1: BioMAP Diversity Plus: 4H Assay for Vascular cell adhesion molecule 1 (VCAM1) Biomarker Activity (AID 2283033)
# assay.context: primary human endothelial cells (HUVEC); actives raise or lower the signal
Activity calls are given as the source filed them. How the source made its calls: active means hit-call score of the fitted dose curve at least 0.9, where 1 is the maximum; inactive means score below 0.9.
recorded.metric: AC50

Please review the entries below; each comes with its answer.
smi | result
CC(C)Oc1ccccc1O | inactive
O=P(c1ccccc1)(c1ccccc1)c1ccccc1 | inactive
NCCNCCN | inactive
Cc1cc(C2(c3cc(C)c(O)cc3C)OS(=O)(=O)c3ccccc32)c(C)cc1O | inactive
C#C[C@]1(O)CC[C@H]2[C@@H]3CCC4=Cc5oncc5C[C@]4(C)[C@H]3CC[C@@]21C | 30.1 µM (active)
Cc1ccc2n[nH]nc2c1 | inactive

Query :: If you can, please state the reported AC50 value of CCCCCCCCC=O .
Result :: inactive

Query :: If you can, please state the reported AC50 value of c1ccc2sc(SN(C3CCCCC3)C3CCCCC3)nc2c1 .
Result :: 5.45 µM (active)
